Exercise: for every item that follows, state its recorded MFI.
- assay.target: T1, human TMEM106B (human, UniProt Q9NUM4 2-274)
- T1 construct: full-length, transiently expressed on HEK293 cells, or natively expressed on HeLa, U251 and A549 cells (the cell is named under assay); also the source of the Pepscan peptides; also called huTMEM106B; huTMEM
- procedure.details: FACS HEK+huTMEM 1.0 ug/ml;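 note: binding of purified mouse IgG antibodies to HEK293 cells transiently expressing human TMEM106B, read by flow cytometry as median fluorescence intensity of live, propidium iodide-negative cells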
Give bare numbers, in MFI.

• TM-29 (antibody, V domains shown) VH: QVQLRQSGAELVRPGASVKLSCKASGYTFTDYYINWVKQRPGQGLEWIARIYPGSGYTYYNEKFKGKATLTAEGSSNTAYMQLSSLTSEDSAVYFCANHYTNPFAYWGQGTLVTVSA VL: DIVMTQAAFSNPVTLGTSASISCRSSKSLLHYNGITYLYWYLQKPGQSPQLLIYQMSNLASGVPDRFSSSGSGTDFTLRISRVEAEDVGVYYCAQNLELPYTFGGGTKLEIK = 63300
• TM-32 (antibody, V domains shown) VH: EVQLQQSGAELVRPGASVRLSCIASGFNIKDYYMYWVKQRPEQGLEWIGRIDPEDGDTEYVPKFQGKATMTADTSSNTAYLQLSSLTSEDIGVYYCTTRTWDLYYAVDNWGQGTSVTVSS VL: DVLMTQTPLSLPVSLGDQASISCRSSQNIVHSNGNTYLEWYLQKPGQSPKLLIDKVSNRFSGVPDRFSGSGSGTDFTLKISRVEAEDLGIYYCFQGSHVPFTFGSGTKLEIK = 63300
• TM-35 (antibody, V domains shown) VH: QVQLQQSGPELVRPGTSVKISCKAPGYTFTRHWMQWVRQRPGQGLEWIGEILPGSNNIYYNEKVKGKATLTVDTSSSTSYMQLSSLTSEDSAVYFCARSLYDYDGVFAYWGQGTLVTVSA VL: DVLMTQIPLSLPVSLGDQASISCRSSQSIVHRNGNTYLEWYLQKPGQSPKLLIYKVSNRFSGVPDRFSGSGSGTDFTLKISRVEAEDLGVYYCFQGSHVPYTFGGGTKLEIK = 55400

// batch mode: one MFI value per listed entry
1. TM-50 (antibody, V domains shown, mouse IgG (hybridoma)) VH: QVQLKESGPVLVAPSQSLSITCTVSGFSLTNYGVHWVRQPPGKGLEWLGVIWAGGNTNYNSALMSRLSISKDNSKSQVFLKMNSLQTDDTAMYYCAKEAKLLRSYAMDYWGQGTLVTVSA VL: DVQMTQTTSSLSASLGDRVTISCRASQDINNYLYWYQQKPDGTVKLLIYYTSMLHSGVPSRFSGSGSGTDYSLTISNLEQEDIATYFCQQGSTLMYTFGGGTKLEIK
2. TM-48 (antibody, V domains shown) VH: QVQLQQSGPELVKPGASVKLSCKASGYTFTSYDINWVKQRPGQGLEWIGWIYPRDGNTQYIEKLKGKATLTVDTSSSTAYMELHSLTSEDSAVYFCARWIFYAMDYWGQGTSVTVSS VL: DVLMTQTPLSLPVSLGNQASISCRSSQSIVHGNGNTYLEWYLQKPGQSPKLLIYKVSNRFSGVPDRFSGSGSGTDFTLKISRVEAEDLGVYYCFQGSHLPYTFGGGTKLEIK

Result ::
1. 314
2. 39900
